Sourced from ChEMBL document CHEMBL5576141

- Tested on: Platelet
- assay-notes: Inhibition of platelet degranulation in human plasma assessed as reduction in P-selectin surface expression by measuring mean fluorescence intensity at 100 uM preincubated with compound for 15 mins followed by CRP-XL addition and measured after 30 mins by FACS-calibur flow cytometry analysis
- Type: functional
- stated-conditions: 0.75 h, time 45 min
measured-property: inhibition at 100 µM
Quick note: number first, unit second.

Below: 10 molecules and their reported inhibition at 100 µM.
[[record]]
molecule = "CN(CCCNC(=O)c1cc2c(=O)n(C)c3ccccc3c2s1)Cc1ccccc1"
measurement = "84%"

[[record]]
molecule = "CC(C)(C)OC(=O)N1CCN(CCCNC(=O)c2csc(-c3ccccc3)n2)CC1"
measurement = "86%"

[[record]]
molecule = "CN(CCCNC(=O)c1cc2ccccc2[nH]1)Cc1ccccc1"
measurement = "85%"

[[record]]
molecule = "O=C(NCCCN(CCCc1ccccc1)Cc1ccccc1)c1ccc(-c2ccccc2)s1"
measurement = "1%"

[[record]]
molecule = "COc1cc(C(=O)N(CCC2CCCN2C)C/C(C)=C/c2ccccc2F)cc(OC)c1OC (stereo not given)"
measurement = "65%"

[[record]]
molecule = "Cc1ccc(-c2ccc(C(=O)NCCCN(C)Cc3ccccc3)s2)cc1"
measurement = "99%"

[[record]]
molecule = "O=C(c1ccc(-c2ccccc2)s1)N1CCCN(Cc2ccccc2)CC1"
measurement = "73%"

[[record]]
molecule = "O=C(NCCCN(CCc1ccccc1)Cc1ccccc1)c1ccc(-c2ccccc2)s1"
measurement = "1%"

[[record]]
molecule = "O=C(NCCCN(CCCO)Cc1ccccc1)c1ccc(-c2ccccc2)s1"
measurement = "89%"

[[record]]
molecule = "CC(C)(C)OC(=O)N1CCN(CCCNCc2csc(-c3ccccc3)n2)CC1"
measurement = "101%"


I would be grateful if you could provide inhibition at 100 µM for each of the following entries.
1. CN(CCCNC(=O)c1cc2ccccc2s1)Cc1ccccc1
2. CN(CCCNC(=O)c1ccc(-c2cccc(F)c2)s1)Cc1ccccc1
3. CC(C)(C)OC(=O)N1CCN(CCNC(=O)c2cc3ccccc3s2)CC1

*A*
1: 91%; 2: 92%; 3: 72%

###

- Test system: Platelet
- assay-notes: Inhibition of platelet degranulation in human plasma assessed as reduction in P-selectin surface expression by measuring mean fluorescence intensity at 100 uM preincubated with compound for 15 mins followed by CRP-XL addition and measured after 30 mins by FACS-calibur flow cytometry analysis
- Assay type: functional
- stated-conditions: 0.75 h, time 45 min
measured-property: inhibition at 100 µM (%)
Give bare numbers, in %.

Below: 3 compounds and their reported inhibition at 100 µM.
[[record]]
compound = "O=C(NCC1CCCN(Cc2ccccc2)C1)c1ccc(-c2ccccc2)s1 (configuration not stated)"
measured_property = "inhibition at 100 µM"
measurement = 44

[[record]]
compound = "CC(C)(C)OC(=O)NCCCNC(=O)c1ccc(-c2ccccc2)s1"
measured_property = "inhibition at 100 µM"
measurement = 0

[[record]]
compound = "CC(C)N(CCCNC(=O)c1ccc(-c2ccccc2)s1)Cc1ccccc1"
measured_property = "inhibition at 100 µM"
measurement = 94


I would be grateful if you could provide inhibition at 100 µM for each of the following entries.
1. CN(CCCNC(=O)c1ccc(-c2ccccc2)s1)Cc1ccc(F)cc1
2. CCN(CCCNC(=O)c1ccc(-c2ccccc2)s1)Cc1ccccc1
3. CC(C)(C)OC(=O)N1CCCN(C(=O)c2csc(-c3ccccc3)n2)CC1
4. COc1ccc(CN(C)CCCNC(=O)c2ccc(-c3ccccc3)s2)cc1

*A*
[94, 95, 89, 89]
